Experiment: Plasma and extravascular levels of pterostilbene after oral administration
Assay type: in vivo
Settings: Swiss albino, mouse, liver, 200 mg/kg b.w.; mice, 200 mg Pter/kg b.w. oral, 240 min; read-out: Pter in Liver
endpoint.name: concentration at 240 min (µM)

| compound | endpoint.unit | measured |
| --- | --- | --- |
| COc1cc(/C=C/c2ccc(O)cc2)cc(OC)c1 [PT, 3,5-dimethoxy-4′-hydroxystilbene] | µM | 7 |

----------
Assay: Plasma and extravascular levels of pterostilbene after oral administration
Assay type: in vivo
Conditions: Swiss albino, mouse, lung, 200 mg/kg b.w.; mice, 200 mg Pter/kg b.w. oral, 480 min; read-out: Pter in Lung

| compound | concentration at 480 min [nM] |
| --- | --- |
| COc1cc(/C=C/c2ccc(O)cc2)cc(OC)c1 [PT, 3,5-dimethoxy-4′-hydroxystilbene] | 2000 |

----------
Experiment: Plasma and extravascular levels of pterostilbene after oral administration
Assay type: in vivo
Conditions: Swiss albino, mouse, liver, 200 mg/kg b.w.; mice, 200 mg Pter/kg b.w. oral, 120 min; read-out: Pter in Liver

| compound | concentration at 120 min / µM |
| --- | --- |
| COc1cc(/C=C/c2ccc(O)cc2)cc(OC)c1 [PT, 3,5-dimethoxy-4′-hydroxystilbene] | 12 |

----------
Assay: Plasma and extravascular levels of pterostilbene after oral administration
Assay type: in vivo
Conditions: Swiss albino, mouse, lung, 200 mg/kg b.w.; mice, 200 mg Pter/kg b.w. oral, 30 min; read-out: Pter in Lung

| molecule | concentration at 30 min |
| --- | --- |
| COc1cc(/C=C/c2ccc(O)cc2)cc(OC)c1 [PT, 3,5-dimethoxy-4′-hydroxystilbene] | 23 µM |

----------
Assay: Plasma and extravascular levels of pterostilbene after oral administration
Format: in vivo
Details: Swiss albino, mouse, brain, 200 mg/kg b.w.; mice, 200 mg Pter/kg b.w. oral, 480 min; read-out: Pter in Brain

| compound | concentration at 480 min |
| --- | --- |
| COc1cc(/C=C/c2ccc(O)cc2)cc(OC)c1 [PT, 3,5-dimethoxy-4′-hydroxystilbene] | 3000 nM |

----------
Assay: Plasma and extravascular levels of pterostilbene after oral administration
Format: in vivo
Settings: Swiss albino, mouse, kidney, 200 mg/kg b.w.; mice, 200 mg Pter/kg b.w. oral, 30 min; read-out: Pter in Kidney

| molecule | concentration at 30 min (µM) |
| --- | --- |
| COc1cc(/C=C/c2ccc(O)cc2)cc(OC)c1 [PT, 3,5-dimethoxy-4′-hydroxystilbene] | 6 |

----------
Test: Plasma and extravascular levels of pterostilbene after oral administration
Type: in vivo
Details: Swiss albino, mouse, brain, 200 mg/kg b.w.; mice, 200 mg Pter/kg b.w. oral, 120 min; read-out: Pter in Brain

| compound | concentration at 120 min, µM |
| --- | --- |
| COc1cc(/C=C/c2ccc(O)cc2)cc(OC)c1 [PT, 3,5-dimethoxy-4′-hydroxystilbene] | 14 |

----------
Assay: Plasma and extravascular levels of pterostilbene after oral administration
Type: in vivo
Conditions: Swiss albino, mouse, plasma, 200 mg/kg b.w.; mice, 200 mg Pter/kg b.w. oral, 60 min; read-out: Pter in Plasma

| compound | concentration at 60 min / µM |
| --- | --- |
| COc1cc(/C=C/c2ccc(O)cc2)cc(OC)c1 [PT, 3,5-dimethoxy-4′-hydroxystilbene] | 98 |
